test: yeast display, Sf9 membrane polyspecificity reagent, FACS + sequencing; frameworks hold sequencing errors
assay readout: polyreactivity (PSR sort gate)

sequence_input=QVQLVESRGGLVQSGGSLRLSCAASGSIFEIYHMGRYRQAPGNERELVASIRTSGGSTYYADSVKGRFTISRDNAKNTVYLQMNSLKPEDTAVYYCAAVGRSYYGHDYWGQGTQVTVSS readout_value="low polyreactivity"
sequence_input=QVQLVESGGGLVQAGGSLRLSCAASGFIFLGNAMGWYRQAPGKERELVAAISSGGSTYADSVKGRFTISRDNAKNTVYLQMNSLKPEDTAVYYCNTEDYTQYEPGYYPPNYYWGQGTQVTVSS readout_value="low polyreactivity"
sequence_input=QVQLQESGGGLVQAGGSLRLSCAAIGTIFASQHMGWYRQAPGKERELVASIAKGGNTYYADSVKGRFTISRGNAKNTEYLQMNSLKPEDTAVYYCAAEIDLPYYYGSADDDYWGQGTQVTVSS readout_value="high polyreactivity"
sequence_input=QVQLVESGGGLVQAGGSLRLSCAASGYTFPFYTMGWYRQAPGKERELVAAISNSGTSTYYADSVKGRFTISRHNAKNTVYLQMNSLKPEDTAVYYSNAGRGTRFVYIDGMDYWGQGTQVTVSS readout_value="high polyreactivity"
sequence_input=QVQLVESGGGLVQAGGSLRLSCAASGIIFRFYAMGWYRQAPGKERELVAVITSRSDSTYYADSVKGRFTISRDNAKNTVYLQMNSLKPEDTAVYYCNARYPWYYRYSTYDYWGQGTQVTVSS readout_value="high polyreactivity"
sequence_input=QVQLGDSGGGLVQAGGSLRLSCAASGRIFGVYAMGWYRQAPGKERELVAAISRNGGSTYYADSVKGRFTISRDNAKNTVYLQMNSLKPEDTAVYYCATGGGVEAAGAYWGQGTQVTVSS readout_value="low polyreactivity"
sequence_input=QVQLVESGGGLVQAGGSIRLSCAASGFTFKGNVMGWYRQAPGKERELVAAISRSGGRTYYADSVKGRFTISRDNAKNTVYLQMNSLKPEDTAVYYCAAVVQSSEPVEYDYWGQGTQVTVSS readout_value="high polyreactivity"
sequence_input=QVQLVESGGGLVQAGGSLRLSCAASGRTFYRYAMGWYRQAPGKEREFVARITTSGGSTYYADSVKGRFTISRDNAKNTVYLQMNSLKPDDTAVYYCNASGVTYAFLRFDYWGQGTQVTVSS readout_value="high polyreactivity"
sequence_input=QVQLVESGGGLVQAGGSLRLSCAASGSIFGSYAMGWYRQAPGKERSTYYADSVKGRFTISRDNAKNTVYLQMNSLKPEDTAVYYCAADTYGYQGSAGGHWGQGTQVTVSS readout_value="low polyreactivity"
sequence_input=QVQLVESGGGLVQAGGSLRLSCAASGSTLGYNAMGCYRQAPGKERELVAAIRGGDDDTYYADSVKGRFTISRDNAKNTVYLQMNSMNPEDTAVYYCATGDTSIPYSPPGGYDSWGQGTQVTVSS readout_value="low polyreactivity"
sequence_input=QVQLVESGGGLVQAGGSLRLSCAAYRFIFATNTMGCYRQAPGKETELVAASSTYYADSVNGRFTISRDNAKNTVYLQMNSLKPEDNAVYYCNADRDSYIGFVDWAGEYWGQGTQVTVSS readout_value="low polyreactivity"
